Ref: the supplement of paper PMC9170038

Tested on: MS2 coat protein
Test: apparent KD of MS2 coat protein; designed switch direction (-1 OFF switch, 1 ON switch): -1; higher = weaker reporter binding
Settings: Eterna round: R95; input ligand: FMN 200 uM
propertyName: apparent KD of MS2 coat protein (nM)
Answers are plain numbers, in nM.

# example entries with known answers
[[record]]
recordsequence = "AAUAGCAAGUAGAUCCUAAACAUGAGGAUCACCCAUGUGCUCGUCUUGUAAAGUACUAUCACGAAAGUGAUAGUACA [Sensor 3, v1 - 57] (puzzle: Sensor v3, turn-off variant 1)"
unitslabel = "nM"
measurement = 151

[[record]]
recordsequence = "AGUACUAACACGAUAGUGUUAGUACUAUAAGCUUGUGUUACAUGAGGAUCACCCAUGUCCUCAUAAGCUCGUCUUAU [Mat - Sensor v3 - Turn-off var 2 - D78] (puzzle: Sensor v3, turn-off variant 2)"
unitslabel = "nM"
measurement = 95.6


For each of the items listed, what is its apparent KD of MS2 coat protein?
1. CCGAAGUGGCGGUCCUAUGACAUGAGGAUCACCCAUGUACUUCGCCACAAGCUUUUUGCUCAUCUUAUAGUUCUCGG [Ator] (puzzle: Sensor v3, turn-off variant 1)
2. UACGGGUCAGGAUAUGCGAGAGAUUGGGAAAUAGGAAGGUAGCAGAAGGGACAUGAGGAUCACCCAUGUGAAGC [JR_Exclu4_Sub097] (puzzle: Exclusion 4)
3. UUUAAUUUUUUUUUUUUACAAGCUUUUUGCUCGUCUUAUACAUGAGGAUCACCCAUGUGGGUAAGGGAUAAAUUAUC [JMF 37] (puzzle: Sensor v3, turn-off variant 2)

Reply:
1: 16.4; 2: 32.2; 3: 28.5

----------
System: K4 kissing-loop RNA reporter;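 note: bound reporter read as fluorescence of individual clusters on recovered sequencing chips by microscopy, with normalized cluster intensities fitted with a binding model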
Experiment: apparent KD of K4 kissing-loop reporter; higher = weaker reporter binding
Conditions: Eterna round: R107; input ligand: arginine 13.2 mM
propertyName: apparent KD of K4 kissing-loop reporter (nM)
One number for each entry, in nM.

Below are worked cases with known answers.
[[record]]
recordsequence = "GAUGAAUGCGGAAGGAGCGAGUUUUUGGGAGUGAUGUUCCCUGCAUAUGCACGUGGGAAAGCUCAGGUAGGUCGCCGCGCUUGUU [Same State Arginine B GF 28]"
measurement = 244

[[record]]
recordsequence = "UCCUGCAAUCUGCCACGAAAGUGGGUUGAUACCAGAGUCGAAAGACUCCCUUGGCAGCGAGUGAUGUUCGUUGCAGGUAAAUAAA [MatMod 8 - Jieux - Exclusion - Theophylline A]"
measurement = 163

[[record]]
recordsequence = "GGACAAGCAUUAGGAUAUAUAGAGCGAAACGCAAUUGAGUGAUGUUCAAAAGCAUAGGGCGAGGAAAUAGAAGGAAUGCACGGGC [Default title]"
measurement = 180

[[record]]
recordsequence = "AGGUGGGACGUAGGAUAUCCCUAAUGAUUUACUUCCUGGUUGCUACGCUUCCAGUGAUGUUGGAAGGGAGAAGGACGGGCGAGUU [Riatbive]"
measurement = 217

[[record]]
recordsequence = "UUUGGAUUGCGCUAAGAGUGCAAGCGCCAACGAGGACCGGUACGGCCGCCACUCGCGGAGGAGUCCAGUGAUGUUGGACGGCCCG [Orbile]"
measurement = 222

[[record]]
recordsequence = "ACGUGCCCAGUGAUGUUGGAUAAAUAUGAAGGAGCGUGCGAAAGCACAGGUAGGUCGCAUAAUAGCACGAGCCACGAAAGUGGCA [#SwitchBubble 7 #K4Early #Sliding]"
measurement = 200

[[record]]
recordsequence = "AACUCUCAGGCAGCCGAGUGAUGUUCGGCCCGAGGACCGGUACGGCCGCCACUCGGGCCUGAGAGAGGUUAUCAAAGAUAGCCAA [#01 K4 Tryptophan A Same State]"
measurement = 75.2

[[record]]
recordsequence = "CCUAUCUCAUACGAUACCAGUCAAUGAUAUUUUAUCAAUGCCAUCACCGAGUGAUGUUCGGACCCUUGGCAGCGUAUGGGAUAGG [whbob_Ex_Theo_B_sa101]"
measurement = 212

[[record]]
recordsequence = "AAUACGCCGAAAGGAUAUAUAGAACAUCAAGGGCGCUGACUUUGCUAAAUCACAAGUGAUGUUUGUAUAGAAGGUUCGCAGUCAA [theeternabot_exclusion_KL_FMN_B_30]"
measurement = 427

[[record]]
recordsequence = "UUUUAAUGCAGUGAUGUUGCUAAUAAAACAGAGGAUAUGCAUGGAAGCAGAAGGCUGAUAUAUUAUACUUUAAUAUAUUAUAUUU [JR_SSFMNA_Sub011]"
measurement = 147


Give apparent KD of K4 kissing-loop reporter for each of the items listed below.
1. CAGACAUGCGGUAGGUUCAAGCGCUGGGAAGGAGCGCAGAUGACUGCAGGUAGGUCGCCCAGUGAUGUUGGGCUUUCCACCUAUG [Onbeenbi]
2. GCCUGAGCACGAAGGAGCGCCGUGACAGGUUACUGCCUUGGGCAGUGAUGUUGCUCAAUCUGGCAGGUAGGUCGCGUGCUCAGGC

Reply:
1. 122
2. 161

----------
Field: apparent KD of MS2 coat protein. Provide a value for each of the sequences that follow.
System: MS2 coat protein
Assay: apparent KD of MS2 coat protein; designed switch direction (-1 OFF switch, 1 ON switch): -1; higher = weaker reporter binding
Conditions: Eterna round: R95; input ligand: microRNA oligo, concentration not stated
Give the number first and the unit second.

[[record]]
recordsequence = "GUGGUGACAGGAUAUACAUGAGGAUCACCCAUGUGAGGAGGACGAGACAGGUGAAGGAGUAGAAGGGUCAGAGA [JR_Exclu3_Sub026] (puzzle: Exclusion 3)"
measurement = "61.9 nM"

[[record]]
recordsequence = "GCUGCGCGAGGAUAUGCGGUUCGCGCGGUGGCCGCUGGCGGACAUGAGGAUCACCCAUGUAGAAGGCGUGCGGG [Apr-15 SS2-60] (puzzle: Exclusion 2)"
measurement = "11.7 nM"


Proceeding to the next sequence to report its apparent KD of MS2 coat protein.
// apparent KD of MS2 coat protein (MS2 coat protein) for CUUAGCCUAAAAUCACGCAAGCUUUUUGCUUGUCUAAAGACAUGAGGAUCACCCAUGUCCGGGCUGAACUUAUGGAA [Atqusoen] (puzzle: Sensor v3, turn-off variant 2) = 18.1 nM

----------
Test system: MS2 coat protein
Experiment: apparent KD of MS2 coat protein; designed switch direction (-1 OFF switch, 1 ON switch): -1; higher = weaker reporter binding
Settings: Eterna round: R95; input ligand: microRNA oligo, concentration not stated
propertyName: apparent KD of MS2 coat protein (nM)
Numbers only, in nM.

[[record]]
recordsequence = "AGUACUAACACGAGAGUGUUAGUACUAUAAGCUUGUGUUACAUGAGGAUCACCCAUGUCCUCAUAAGCUCGUCUUAA [Mat - Sensor v3 - Turn-off var 2 - D64] (puzzle: Sensor v3, turn-off variant 2)"
measurement = 185


List apparent KD of MS2 coat protein for every entry below, keeping the order given.
1. GGUGGACAUGAGGAUCACCCAUGUGAGGAUAUCGGCUGGUACGUGUUGGCUGGCAUCUCGAGAAGGCACAUCGU [Exclusion 1 V64] (puzzle: Exclusion 1)
2. CCGAAGUGGCGGUCCUAUGACAUGAGGAUCACCCAUGUACUUCGCCACAAGCUUUUUGCUCAUCUUAUAGUUCUCGG [Ator] (puzzle: Sensor v3, turn-off variant 1)
3. GCGCACUAAGUGAGGAUAUCGUUUAUUUUUAGGAUCGAGAAGGCACAUGAGGAUCACCCAUGUUUGACGUGCGC [JR_BMOE4_Sub099] (puzzle: Brourd's mod of Exclusion 4)

Reply:
1: 44.8; 2: 25.1; 3: 17.9

----------
System: MS2 coat protein
Assay: apparent KD of MS2 coat protein; designed switch direction (-1 OFF switch, 1 ON switch): -1; higher = weaker reporter binding
Conditions: Eterna round: R95; input ligand: microRNA oligo, concentration not stated
Task for the reader: assign each of the following sequences its reported apparent KD of MS2 coat protein.
Numbers only, in nM.

Solved cases below.
[[record]]
recordsequence = "UUAUAAAGUGUGAGGAUAUGCUGGUCCUUGGAUCAGCAGAAGGCACAUGAGGAUCACCCAUGUAAUAUAUUUUU [JL bmx4 3.08] (puzzle: Brourd's mod of Exclusion 4)"
systemname = "MS2 coat protein"
propertyname = "apparent KD of MS2 coat protein"
measurement = 68.2

[[record]]
recordsequence = "AGUACAUUCACGAAAGUGAAUGUACAAUAAGCUUGUGGAACAUGAGGAUCACCCAUGUCCUCAUAAGCUCGUCUUAU [Mat - Sensor v3 - Turn-off var 2 - D31] (puzzle: Sensor v3, turn-off variant 2)"
systemname = "MS2 coat protein"
propertyname = "apparent KD of MS2 coat protein"
measurement = 68.7

[[record]]
recordsequence = "ACAAGCUUAAAAGGUGAUAACAUGAGGAUCACCCAUGUUCGUCUUAUAAAGAUCCUAUGUCGAAAGACAUAGGAUCA [Sensor 3, v1 - 68] (puzzle: Sensor v3, turn-off variant 1)"
systemname = "MS2 coat protein"
propertyname = "apparent KD of MS2 coat protein"
measurement = 39.4


// for each sequence in input: emit apparent KD of MS2 coat protein
1. CUACUGUGAGGAUAUGGUGAGUAGUGCCUGAGCGCUGCUCACCAGAAGGCACAUGAGGAUCACCCAUGUAUGAC [JL-ex4-2.03 denovo] (puzzle: Exclusion 4)
2. GGUUGGCGAGGAUAUACAUGAGGAUCACCCAUGUGAGAGAAAAAAGUGAGGAAGAACAGUAGAAGGCGCUGACG [salish99_ex3_r3_036] (puzzle: Exclusion 3)

Reply:
1. 43.5
2. 74.2
